cell viability values for the molecules below.
# Test system: MDA-MB-231;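 further: viability of the cells left after supernatant collection, read with Deep Blue dye added for 4 h, as absorbance at 570 nm minus 600 nm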
# measurement-notes: cell viability relative to vehicle unstimulated control (fraction); higher = more viable cells
# study-conditions: pre-treatment time: 18 h then 24 h IFNg/TNF

molecule	system-tested	cell viability
C[C@H](C[C@H](O)[C@H]1OC1(C)C)C1=C2C[C@H](O)[C@H]3[C@@]4(C)CCC(=O)C(C)(C)[C@@H]4CC[C@]3(C)[C@@]2(C)CC1 [Alisol B] (compound dose: 10 uM)	MDA-MB-231	0.865
CC1(C)C(O[C@@H]2OC[C@@H](O)[C@H](O)[C@H]2O)CC[C@]23CC24CC[C@]2(C)[C@@H]([C@@]5(C)CC[C@@H](C(C)(C)O)O5)[C@H](O)C[C@@]2(C)C4C[C@@H](O[C@@H]2O[C@H](CO)[C@@H](O)[C@H](O)[C@H]2O)C13 (stereo partly drawn) [Astragaloside IV] (compound dose: 10 uM)	MDA-MB-231	1.05
C=C1CC[C@@H]2[C@](C)(CO)[C@H](O)CC[C@@]2(C)[C@@H]1C/C=C1/C(=O)OC[C@H]1O [Andrographolide] (compound dose: 10 uM)	MDA-MB-231	0.98
CC(C)=CCC[C@@H](C(=O)O)[C@H]1CC[C@@]2(C)C3=CC[C@H]4C(C)(C)[C@@H](O)CC[C@]4(C)C3=CC[C@]12C [3-Dehydrotrametenolic acid] (compound dose: 10 uM)	MDA-MB-231	1.01
CC(C)=CCC[C@](C)(O[C@@H]1O[C@H](CO)[C@@H](O)[C@H](O)[C@H]1O)[C@H]1CC[C@]2(C)[C@@H]1[C@H](O)C[C@@H]1[C@@]3(C)CC[C@H](O)C(C)(C)[C@@H]3[C@@H](O[C@@H]3O[C@H](CO)[C@@H](O)[C@H](O)[C@H]3O[C@@H]3OC[C@@H](O)[C@H](O)[C@H]3O)C[C@]12C [Notoginsenoside R1] (compound dose: 10 uM)	MDA-MB-231	0.909
C=C[C@]1(C)C[C@@H](OC(=O)CO)[C@]2(C)[C@H](C)CC[C@]3(CCC(=O)[C@@H]32)[C@@H](C)[C@@H]1O [Pleuromutilin] (compound dose: 10 uM)	MDA-MB-231	1.01
C=C1C(=O)O[C@@H]2/C=C(\C)[C@@H](OC(C)=O)C/C=C(\COC(C)=O)C[C@@H](OC(=O)/C(C)=C/CO)[C@@H]12 [Eupalinolide B] (compound dose: 10 uM)	MDA-MB-231	0.899
C/C=C(/C)C(=O)O[C@H]1[C@H](OC(C)=O)[C@]2(CO)[C@H](O)C[C@]3(C)C(=CC[C@@H]4[C@@]5(C)CC[C@H](O[C@@H]6O[C@H](C(=O)O)[C@@H](O[C@@H]7O[C@H](CO)[C@@H](O)[C@H](O)[C@H]7O)[C@H](O)[C@H]6O[C@@H]6O[C@H](CO)[C@@H](O)[C@H](O)[C@H]6O)[C@](C)(CO)[C@@H]5CC[C@]43C)[C@@H]2CC1(C)C [Escin IB] (compound dose: 10 uM)	MDA-MB-231	0.915
